target: CDK4-CYCLIND1 (Homo sapiens, UniProt P11802); assay: CDK inhibition assay (microfluidic LabChip, IC50 format); settings: CDK4 CyclinD1 IC50, Table 4a; a second value in parentheses for some compounds
Sequence (P11802 whole entry): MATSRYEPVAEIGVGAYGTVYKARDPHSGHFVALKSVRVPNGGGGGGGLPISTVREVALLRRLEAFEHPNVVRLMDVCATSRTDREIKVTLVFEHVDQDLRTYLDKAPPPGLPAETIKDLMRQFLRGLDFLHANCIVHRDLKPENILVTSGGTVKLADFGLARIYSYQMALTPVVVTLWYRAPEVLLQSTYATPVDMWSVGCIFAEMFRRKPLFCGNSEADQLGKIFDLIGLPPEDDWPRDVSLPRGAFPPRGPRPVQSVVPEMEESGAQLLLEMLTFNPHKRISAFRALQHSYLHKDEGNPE
Sequence (P24385 whole entry partner): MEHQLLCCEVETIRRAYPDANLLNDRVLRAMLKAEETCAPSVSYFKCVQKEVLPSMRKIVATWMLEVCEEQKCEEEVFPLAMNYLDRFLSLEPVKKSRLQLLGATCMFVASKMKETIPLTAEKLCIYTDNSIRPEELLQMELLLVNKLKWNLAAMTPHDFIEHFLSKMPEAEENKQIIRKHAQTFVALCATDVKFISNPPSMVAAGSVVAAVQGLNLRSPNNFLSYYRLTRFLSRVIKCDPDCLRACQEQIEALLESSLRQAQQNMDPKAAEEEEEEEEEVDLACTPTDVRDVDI
pIC50: −log10 of the molar value.
Reported Property: pIC50

CN(C)CCOc1ccc(Nc2ncc3c(n2)N(C2CCCC2)C(=O)[C@]2(CCNC2=O)C3)nc1 [Example D138] ... 8.34

[1] CCN1CCN(Cc2ccc(Nc3ncc4c(n3)N(C3CCCC3)C(=O)[C@]3(CCNC3=O)C4)nc2)CC1 [Example D155]
[2] CC(C)n1cc(-c2ccc(Nc3ncc4c(n3)N(C3CCCC3)C(=O)[C@]3(CCNC3=O)C4)nc2)cn1 [Example D170]
[3] CN1CCN(c2ccc(Nc3ncc4c(n3)N(C3CCCC3)C(=O)[C@]3(CCNC3=O)C4)cn2)CC1 [Example D150]
Order the entries by their reported pIC50, beginning at the minimum. Order the labels as requested and give them as your answer.
2, 1, 3
(2: 7.37, 1: 8.21, 3: 8.94)

====

tested on: MAXFLB T47D (ER+); assay: 2D cell proliferation assay (CellTiter-Blue); type: cell-based; details: Homo sapiens, 72 h, three days of treatment, read-out: abs. IC50
Reported Property: IC50 (µM)

CN(C)CCOc1ccc(Nc2ncc3c(n2)N(C2CCCC2)C(=O)[C@]2(CCNC2=O)C3)cc1 ... 0.829

[1] CC(C)N1CCN(c2ccc(Nc3ncc4c(n3)N(C3CCCC3)C(=O)[C@]3(CCNC3=O)C4)nc2)CC1
[2] O=C1NCC[C@@]12Cc1cnc(Nc3ccc(N4CCNCC4)cc3F)nc1N(C1CCCC1)C2=O
[3] CN(C)[C@H]1CCN(c2ccc(Nc3ncc4c(n3)N(C3CCCC3)C(=O)[C@]3(CCNC3=O)C4)nc2)C1
Order the records so the highest IC50 appears first and the lowest last. Order the labels as requested and give them as your answer.
1, 3, 2

====

test: Pharmacokinetics after IV bolus; format: in vivo; conditions: rat, plasma; rats; IV bolus 30 mg/kg; N = 3
Reported Property: clearance (mL/min/kg)

CN(C)CCOc1ccc(Nc2ncc3c(n2)N(C2CCCC2)C(=O)[C@]2(CCNC2=O)C3)cc1 ... 38.3

[a] CC(C)N1CCN(c2ccc(Nc3ncc4c(n3)N(C3CCCC3)C(=O)[C@]3(CCNC3=O)C4)cc2)CC1
[b] CN1CCN(c2ccc(Nc3ncc4c(n3)N(C3CCCC3)C(=O)[C@]3(CCNC3=O)C4)cc2F)CC1
Which shows the larger clearance value: a or b ? Use the label to indicate which entry you chose.
a

====

molecular target: CDK7 CyclinH (Homo sapiens, UniProt P50613); experiment: CDK inhibition assay (microfluidic LabChip, IC50 format); format: biochemical; conditions: Table 4a
Sequence (P50613 whole entry): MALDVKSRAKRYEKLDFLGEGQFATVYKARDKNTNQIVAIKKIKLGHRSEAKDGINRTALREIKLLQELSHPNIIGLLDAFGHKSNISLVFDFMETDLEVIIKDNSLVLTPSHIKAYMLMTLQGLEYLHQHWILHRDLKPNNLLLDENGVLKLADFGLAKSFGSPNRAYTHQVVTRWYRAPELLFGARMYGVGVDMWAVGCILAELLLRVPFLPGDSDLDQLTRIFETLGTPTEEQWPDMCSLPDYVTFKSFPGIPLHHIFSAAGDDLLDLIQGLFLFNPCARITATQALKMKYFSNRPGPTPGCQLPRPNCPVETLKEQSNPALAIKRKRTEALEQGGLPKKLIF
Sequence (P51946 whole entry partner): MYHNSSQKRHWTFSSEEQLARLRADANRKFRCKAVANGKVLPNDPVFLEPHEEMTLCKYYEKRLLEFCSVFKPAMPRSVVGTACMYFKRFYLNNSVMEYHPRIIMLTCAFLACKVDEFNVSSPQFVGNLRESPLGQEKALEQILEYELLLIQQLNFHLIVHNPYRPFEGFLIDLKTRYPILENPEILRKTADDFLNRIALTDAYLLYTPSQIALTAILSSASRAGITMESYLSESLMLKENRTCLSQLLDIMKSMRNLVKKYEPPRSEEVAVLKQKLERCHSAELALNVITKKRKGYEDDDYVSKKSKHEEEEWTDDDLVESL
Sequence (P51948 whole entry partner): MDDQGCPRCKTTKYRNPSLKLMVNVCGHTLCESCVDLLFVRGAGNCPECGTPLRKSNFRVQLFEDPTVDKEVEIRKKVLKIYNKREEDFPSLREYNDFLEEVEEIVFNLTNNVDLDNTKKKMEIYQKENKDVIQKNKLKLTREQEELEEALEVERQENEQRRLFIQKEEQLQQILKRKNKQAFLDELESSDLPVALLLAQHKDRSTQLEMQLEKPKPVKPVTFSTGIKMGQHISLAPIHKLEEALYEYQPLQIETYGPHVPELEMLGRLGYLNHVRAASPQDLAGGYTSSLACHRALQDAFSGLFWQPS
pIC50: −log10 of the molar value.
Reported Property: pIC50

O=C1NCC[C@@]12Cc1cnc(N[C@H]3CC[C@H](NC4CCOCC4)CC3)nc1N(C13CC(C1)C3)C2=O ... 5.82
COc1cc(N2CCNCC2)ccc1Nc1ncc2c(n1)N(C1CCCC1)C(=O)[C@]1(CCNC1=O)C2 ... 5.14
CN1CCN(c2ccc(Nc3ncc4c(n3)N(C3CCCC3)C(=O)[C@]3(CCNC3=O)C4)nc2)CC1 ... 4.74
O=C1NCC[C@@]12Cc1cnc(Nc3ccc(OCCN4CCCC4)c(F)c3)nc1N(C1CCCC1)C2=O ... 6.58
COc1cc(Nc2ncc3c(n2)N(C2CCCC2)C(=O)[C@]2(CCNC2=O)C3)ccc1N1CCN(C)CC1 ... 6.80

[a] CN(C)[C@H]1CCN(c2ccc(Nc3ncc4c(n3)N(C3CCCC3)C(=O)[C@]3(CCNC3=O)C4)nc2)C1
[b] COc1cc(N2CCN(C(C)C)CC2)ccc1Nc1ncc2c(n1)N(C1CCCC1)C(=O)[C@]1(CCNC1=O)C2
Hi, I'm comparing two records. Which one has the lower pIC50, a or b ? Use the label to indicate which entry you chose.
b
(b: 4.92, a: 5.95)

====

target: CDK6-CYCLIND3 (Homo sapiens, UniProt Q00534); construct: purchased Carna; experiment: CDK inhibition assay (microfluidic LabChip, IC50 format); type: biochemical; details: Table 3; purified enantiomers; read-out: CDK6 (E1/E2)
Sequence (Q00534 whole entry): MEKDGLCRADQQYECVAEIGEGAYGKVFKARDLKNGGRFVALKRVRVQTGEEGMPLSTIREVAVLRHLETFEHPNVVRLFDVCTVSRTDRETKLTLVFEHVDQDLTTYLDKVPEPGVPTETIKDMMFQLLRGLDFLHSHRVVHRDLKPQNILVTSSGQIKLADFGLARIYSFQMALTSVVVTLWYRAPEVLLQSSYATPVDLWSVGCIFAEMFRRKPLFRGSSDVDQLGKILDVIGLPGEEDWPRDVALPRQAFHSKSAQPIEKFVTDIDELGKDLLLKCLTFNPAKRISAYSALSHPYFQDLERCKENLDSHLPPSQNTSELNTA
Sequence (P30281 whole entry partner): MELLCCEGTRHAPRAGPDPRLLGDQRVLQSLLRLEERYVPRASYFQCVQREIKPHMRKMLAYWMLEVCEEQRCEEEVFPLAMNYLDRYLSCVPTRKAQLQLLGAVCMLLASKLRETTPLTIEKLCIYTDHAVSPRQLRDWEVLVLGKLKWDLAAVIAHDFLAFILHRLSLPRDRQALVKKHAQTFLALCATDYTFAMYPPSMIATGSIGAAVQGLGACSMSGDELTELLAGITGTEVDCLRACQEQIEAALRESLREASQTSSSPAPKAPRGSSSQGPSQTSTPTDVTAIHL
pIC50: −log10 of the molar value.
Reported Property: pIC50

Consider the following illustrative entries.
O=C1NCC[C@]12Cc1cnc(Nc3ccc(N4CCNCC4)c(F)c3)nc1N(C1CCCC1)C2=O ... 6.44
O=C1NCC[C@@]12Cc1cnc(Nc3ccc(N4CCNCC4)cc3)nc1N(C1CCCC1)C2=O ... 8.57
CN1CCN(c2ccc(Nc3ncc4c(n3)N(C3CCCC3)C(=O)[C@@]3(CCNC3=O)C4)cc2F)CC1 ... 6.35
O=C1NCC[C@@]12Cc1cnc(Nc3ccc(N4CCNCC4)cn3)nc1N(C1CCCC1)C2=O ... 8.49
CC(C)N1CCN(c2ccc(Nc3ncc4c(n3)N(C3CCCC3)C(=O)[C@]3(CCNC3=O)C4)cc2F)CC1 ... 8.78

[a] O=C1NCC[C@@]12Cc1cnc(Nc3ccc(N4CCNCC4)c(F)c3)nc1N(C1CCCC1)C2=O
[b] O=C1NCC[C@]12Cc1cnc(Nc3ccc(N4CCNCC4)cn3)nc1N(C1CCCC1)C2=O
Which shows the larger pIC50 value: a or b ? Use the label to indicate which entry you chose.
a
(a: 8.89, b: 5.70)

====

target: CDK2-CYCLINA (Homo sapiens, UniProt P24941); construct: purchased Millipore; experiment: CDK inhibition assay (microfluidic LabChip, IC50 format); format: biochemical; settings: Table 4a; read-out: CDK2 CyclinA IC50
Reported Property: IC50 (nM)

Consider the following illustrative entries.
COc1cc(Nc2ncc3c(n2)N(C2CCCC2)C(=O)[C@]2(CCNC2=O)C3)ccc1N1CCNCC1 ... 35
CN(C)[C@H]1CCN(c2ccc(Nc3ncc4c(n3)N(C3CCCC3)C(=O)[C@]3(CCNC3=O)C4)nc2)C1 ... 127
CN(C)[C@@H]1CCN(c2ccc(Nc3ncc4c(n3)N(C3CCCC3)C(=O)[C@]3(CCNC3=O)C4)cn2)C1 ... 57.1
Cc1cc(Nc2ncc3c(n2)N(C2CCCC2)C(=O)[C@]2(CCNC2=O)C3)ccc1N1CCN(C(C)C)CC1 ... 22.2

[1] Cc1cc(Nc2ncc3c(n2)N(C2CCCC2)C(=O)[C@]2(CCNC2=O)C3)ccc1N1CCNCC1
[2] CN1CCN(c2ccc(Nc3ncc4c(n3)N(C3CCCC3)C(=O)[C@]3(CCNC3=O)C4)cc2)CC1
Hi, I'm comparing two records. Which one has the lower IC50, 1 or 2 ? Use the label to indicate which entry you chose.
1

====

target: CDK4-CYCLIND1 (Homo sapiens); assay: CDK inhibition assay (microfluidic LabChip, IC50 format); settings: CDK4 IC50, Table 4b, upper part
pIC50: −log10 of the molar value.
Reported Property: pIC50

Consider the following illustrative entries.
CN1C(=O)CC2(Cc3cnc(Nc4ccc(OCCN5CCCC5)nc4)nc3N(C3CCCC3)C2=O)C1=O (stereo not shown) ... 6.73
O=C1NCCC12Cc1cnc(Nc3ccc(N4CCNCC4)c(F)c3)nc1N(C1CCCC1)C2=O (stereo not shown) ... 8.68

[A] O=C1NCCC12Cc1cnc(Nc3ccc(N4CCOCC4)c(F)c3)nc1N(C1CCCC1)C2=O (stereo not shown)
[B] CC(C)N1CCN(c2ccc(Nc3ncc4c(n3)N(C3CCCC3)C(=O)C3(CCNC3=O)C4)c(F)c2)CC1 (stereo not shown)
Hi, I'm comparing two records. Which one has the lower pIC50, A or B ? Use the label to indicate which entry you chose.
B

====

target: CDK4-CYCLIND1 (Homo sapiens); test: CDK inhibition assay (microfluidic LabChip, IC50 format); conditions: CDK4 CyclinD1 IC50, Table 4b, lower part; a second value in parentheses for some compounds
pIC50: −log10 of the molar value.
Reported Property: pIC50

Consider the following illustrative entries.
CN1CCN(c2ccc(Nc3ncc4c(n3)N(C35CC(C3)C5)C(=O)[C@]3(CCNC3=O)C4)cc2)CC1 ... 7.86
C[C@]1(O)CC[C@@H](Nc2ncc3c(n2)N(C2CCCC2)C(=O)[C@]2(CCNC2=O)C3)CC1 ... 7.64
CC(C)N1CCN(c2ccc(Nc3ncc4c(n3)N(C35CC(C3)C5)C(=O)[C@]3(CCNC3=O)C4)nc2)CC1 ... 4.54

[a] CC(C)n1cc(-c2ccc(Nc3ncc4c(n3)N(C3CCCC3)C(=O)[C@]3(CCNC3=O)C4)cc2)cn1
[b] CC1CN(c2ccc(Nc3ncc4c(n3)N(C35CC(C3)C5)C(=O)[C@]3(CCNC3=O)C4)cc2)CC(C)N1 (stereo partly drawn)
[c] O=C1NCC[C@@]12Cc1cnc(Nc3ccc(OCCN4CCCCC4)nc3)nc1N(C1CCCC1)C2=O
[d] CC(C)N1CCN(c2ccc(Nc3ncc4c(n3)N(C3CCCC3)C(=O)[C@]3(CCNC3=O)C4)cn2)CC1
Order the records so the highest pIC50 appears first and the lowest last. Order the labels as requested and give them as your answer.
d, c, a, b
(d: 8.76, c: 8.34, a: 7.64, b: 7.40)

[P] O=C1NCC[C@]12Cc1cnc(Nc3ccc(N4CCNCC4)c(F)c3)nc1N(C13CC(C1)C3)C2=O
[Q] CC(C)N1CCN(c2ccc(Nc3ncc4c(n3)N(C35CC(C3)C5)C(=O)[C@]3(CCNC3=O)C4)cc2)CC1
[R] O=C1NCC[C@@]12Cc1cnc(Nc3ccc(OCCN4CCCC4)nc3)nc1N(C1CCCC1)C2=O
[S] CN1CCN(c2ccc(Nc3ncc4c(n3)N(C35CC(C3)C5)C(=O)[C@@]3(CCNC3=O)C4)cc2F)CC1
Order the entries by their reported pIC50, beginning at the minimum. Order the labels as requested and give them as your answer.
S, P, Q, R
(S: 5.65, P: 5.90, Q: 7.84, R: 8.20)

[P] CN1CCN(c2ccc(Nc3ncc4c(n3)N(C35CC(C3)C5)C(=O)[C@]3(CCNC3=O)C4)nc2)CC1
[Q] CC(C)N1CCN(c2ccc(Nc3ncc4c(n3)N(C35CC(C3)C5)C(=O)[C@]3(CCNC3=O)C4)cc2F)CC1
[R] O=C1NCC[C@@]12Cc1cnc(Nc3ccc(N4CCC(N5CCOCC5)CC4)nc3)nc1N(C1CCCC1)C2=O
[S] CC(C)C1CCN(c2ccc(Nc3ncc4c(n3)N(C3CCCC3)C(=O)[C@]3(CCNC3=O)C4)cc2)CC1
Order the records so the highest pIC50 appears first and the lowest last. Order the labels as requested and give them as your answer.
R, S, Q, P
(R: 8.81, S: 8.30, Q: 7.76, P: 4.97)

[A] CCN1CCN(Cc2ccc(Nc3ncc4c(n3)N(C35CC(C3)C5)C(=O)[C@]3(CCNC3=O)C4)nc2)CC1
[B] CN1CCN(c2ccc(Nc3ncc4c(n3)N(C35CC(C3)C5)C(=O)[C@]3(CCNC3=O)C4)cc2F)CC1
[C] O=C1NCC[C@@]12Cc1cnc(Nc3ccc(N4CCC(N5CCOCC5)CC4)cn3)nc1N(C1CCCC1)C2=O
Order the records so the highest pIC50 appears first and the lowest last. Order the labels as requested and give them as your answer.
C, B, A
(C: 8.37, B: 7.81, A: 4.94)

[P] CN1CCN(c2ccc(Nc3ncc4c(n3)N(C35CC(C3)C5)C(=O)C3(CCNC3=O)C4)cc2F)CC1 (stereo not drawn)
[Q] O=C1NCC[C@@]12Cc1cnc(Nc3ccc(N4CCN(CCO)CC4)c(F)c3)nc1N(C13CC(C1)C3)C2=O
Hi, I'm comparing two records. Which one has the lower pIC50, P or Q ? Use the label to indicate which entry you chose.
P
(P: 7.64, Q: 7.88)
